# System: DENV-2 RL
# Test Method Notes: microbe, parasite or virus in culture
# Assay type: cell-based
# Cond: Dengue virus, DENV2, Vero, read-out: EC50 values Ave, B sample, passage 48
Endpoint: EC50

Q) Item COc1cc(N[C@H](C(=O)c2c[nH]c3ccc(OC(F)(F)F)cc23)c2ccc(Cl)cc2OC)cc(S(C)(=O)=O)c1 [JNJ-1802] : provide EC50
A) 1.29 µM

----------
# Test Method Notes: in vivo
# Cond: female, rhesus monkey, in vivo, iv, 1 mg/kg
Endpoint: AUC(0-inf) (ng·h/mL)
# output: bare number, implied unit ng·h/mL

Q) Give the measured AUC(0-inf) for COc1cc(N[C@H](C(=O)c2c[nH]c3ccc(OC(F)(F)F)cc23)c2ccc(Cl)cc2OC)cc(S(C)(=O)=O)c1
A) 11800
